Reference for the values: PubChem BioAssay AID376

- subject_of_test: Voltage-gated inwardly rectifying potassium channel KCNH2 (Homo sapiens) (UniProt Q12809)
- Sequence (Q12809 whole entry, looked up): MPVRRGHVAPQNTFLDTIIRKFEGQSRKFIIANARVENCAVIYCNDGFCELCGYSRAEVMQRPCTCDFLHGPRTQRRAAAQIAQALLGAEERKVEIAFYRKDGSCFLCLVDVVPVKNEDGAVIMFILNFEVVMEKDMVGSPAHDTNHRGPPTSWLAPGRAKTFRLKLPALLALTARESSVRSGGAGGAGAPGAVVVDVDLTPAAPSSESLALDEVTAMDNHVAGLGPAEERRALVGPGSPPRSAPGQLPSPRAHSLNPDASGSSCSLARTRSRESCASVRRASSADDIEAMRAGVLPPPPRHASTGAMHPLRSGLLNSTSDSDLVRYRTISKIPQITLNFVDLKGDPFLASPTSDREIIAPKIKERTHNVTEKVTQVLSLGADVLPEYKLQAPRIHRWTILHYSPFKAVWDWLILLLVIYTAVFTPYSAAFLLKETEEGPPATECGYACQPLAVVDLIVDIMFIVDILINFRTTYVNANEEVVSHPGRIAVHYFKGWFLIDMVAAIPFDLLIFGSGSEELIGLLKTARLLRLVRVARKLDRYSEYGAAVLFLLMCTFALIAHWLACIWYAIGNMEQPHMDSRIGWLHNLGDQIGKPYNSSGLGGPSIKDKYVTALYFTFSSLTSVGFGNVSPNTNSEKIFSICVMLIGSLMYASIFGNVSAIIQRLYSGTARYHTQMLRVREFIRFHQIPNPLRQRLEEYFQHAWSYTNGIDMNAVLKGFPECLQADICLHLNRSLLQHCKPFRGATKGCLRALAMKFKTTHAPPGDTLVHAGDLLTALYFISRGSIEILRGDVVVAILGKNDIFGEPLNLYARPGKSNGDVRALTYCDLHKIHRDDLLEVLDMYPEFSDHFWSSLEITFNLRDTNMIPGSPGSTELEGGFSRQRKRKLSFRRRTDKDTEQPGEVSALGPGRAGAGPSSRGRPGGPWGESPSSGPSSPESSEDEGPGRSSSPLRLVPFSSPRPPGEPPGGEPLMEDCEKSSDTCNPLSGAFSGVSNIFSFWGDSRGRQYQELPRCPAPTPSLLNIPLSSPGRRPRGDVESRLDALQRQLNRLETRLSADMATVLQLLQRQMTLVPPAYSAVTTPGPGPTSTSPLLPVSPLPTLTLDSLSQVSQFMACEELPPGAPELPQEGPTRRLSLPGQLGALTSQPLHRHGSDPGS
- test_summary: KCNH2 potassium channel function modulators, cell-based (AID 376);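 note: 0% = buffer alone and 100% = reference blocker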
- reported_conditions: hERG-expressing cells, channel activity single-concentration screen; concentration not given here
Hit rate of the full screen: of about 2,000 compounds, about 250 (12%) were called active. The full list was thinned out, with actives kept by preference.
Assignment: determine reported hERG blockade for the given compounds.
# unit: % | format: bare number

Incoming: Fill blank: measured hERG blockade of the compound "C[N+](C)(N)Cc1nc(-c2ccc(Cl)cc2)no1" is ____.
Outgoing: 1.91

Incoming: Fill blank: measured hERG blockade of the compound "Nc1nc(N)c2[nH]c(CNc3ccc(C(=O)O)cc3)nc2n1" is ____.
Outgoing: 16.1

Incoming: Fill blank: measured hERG blockade of the compound "N=C(N)SCc1nc(-c2ccc(Cl)cc2)no1" is ____.
Outgoing: -25.1

Incoming: Fill blank: measured hERG blockade of the compound O=C(O)C1C2C=CC(O2)C1C(=O)Nc1ccccc1 (stereo unspecified) is ____.
Outgoing: -12.4

Incoming: Fill blank: measured hERG blockade of the compound "O=C(SCc1cccc2ccccc12)c1ccc(Cl)cc1" is ____.
Outgoing: -11.8

Incoming: Fill blank: measured hERG blockade of the compound "Nc1nc2nc3c(nc2c(=O)[nH]1)CN(c1ccc(C(=O)O)cc1)C3=O" is ____.
Outgoing: -6.18

Incoming: Fill blank: measured hERG blockade of the compound COC1C=COC2(C)Oc3c(C)c(O)c4c(O)c(cc(O)c4c3C2=O)NC(=O)C(C)=CC=CC(C)C(O)C(C)C(O)C(C)C(OC(C)=O)C1C (stereo unspecified) is ____.
Outgoing: 8.1

Incoming: Fill blank: measured hERG blockade of the compound O=S(=O)(O)C(CO)c1ccccc1 (stereo unspecified) (tested in a mixture with another compound) is ____.
Outgoing: 13.2

Incoming: Fill blank: measured hERG blockade of the compound "Clc1ccc(-c2noc(CN3CCCCC3)n2)cc1" is ____.
Outgoing: -11.3

Incoming: Fill blank: measured hERG blockade of the compound "COc1ccc(C(=O)NN=C2C(=O)c3c(C)cc(C)cc3CC2(C)C)cc1" is ____.
Outgoing: 8.71

Incoming: Fill blank: measured hERG blockade of the compound CC1=NC(C)(COC(=O)C2(C)NC(C)(CO)CO2)COC1=O (stereo unspecified) is ____.
Outgoing: -5.89
